B1: tRNA (parent)
chain: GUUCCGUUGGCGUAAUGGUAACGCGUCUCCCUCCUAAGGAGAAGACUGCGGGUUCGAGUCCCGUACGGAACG

Variants of: B1
ASSAY NOTES: yeast fitness relative to wild type (ratio to wild type); higher = fitter; tRNA-Arg(CCU), competitive growth, 37 C, YPD
Fewer inactive variants are shown than the library holds.
Output satisfied for yeast fitness not less than 0.6; output not satisfied otherwise.

Reference set, count: 6
{"VARIANT NOTATION": "U3C G56A C60A", "ASSIGNED CLASS": "not satisfied"}
{"VARIANT NOTATION": "U19C C24U C31G U35A C61A A69C", "ASSIGNED CLASS": "not satisfied"}
{"VARIANT NOTATION": "C24G C27G A37G", "ASSIGNED CLASS": "not satisfied"}
{"VARIANT NOTATION": "G23A", "ASSIGNED CLASS": "satisfied"}
{"VARIANT NOTATION": "A42U A43G G48C U53A A65U A70C", "ASSIGNED CLASS": "not satisfied"}
{"VARIANT NOTATION": "C31A A36U U53A", "ASSIGNED CLASS": "not satisfied"}

**Query** Hello, I need to know if G18C C62G C66A has measured yeast fitness not below 0.6. Thanks!
**Result** not satisfied

**Query** Hello, I need to know if C5A C29G A37G G41A A43U has measured yeast fitness not below 0.6. Thanks!
**Result** not satisfied

**Query** Hello, I need to know if C5U A21U has measured yeast fitness not below 0.6. Thanks!
**Result** satisfied

**Query** Hello, I need to know if A37U C55U A65U has measured yeast fitness not below 0.6. Thanks!
**Result** not satisfied
